Measured values drawn from patent US5955491A for this set.

Molecular target: human cathepsin L (Homo sapiens, UniProt P07711)
Construct: made in house; host or cells: mouse myeloma Sp2/0 cells stably transformed with pTBN-HCLneo (Sp-HCL26); purified from serum-free culture supernatant on CM-Sephadex C-50 and Mono S
Sequence (P07711 114-333): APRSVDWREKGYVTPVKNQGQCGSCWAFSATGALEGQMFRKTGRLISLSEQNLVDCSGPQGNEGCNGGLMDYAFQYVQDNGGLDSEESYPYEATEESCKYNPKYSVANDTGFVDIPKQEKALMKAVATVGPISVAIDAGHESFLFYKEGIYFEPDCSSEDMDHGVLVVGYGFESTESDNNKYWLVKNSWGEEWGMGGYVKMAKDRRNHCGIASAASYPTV
Assay: Determination of human cathepsin L inhibitory activity (recombinant enzyme, Z-Phe-Arg-NMec substrate)
Format: biochemical
Settings: pH 5.5, 30° C., 10 minutes
Experimental: This fraction was applied to a Mono S column (HR5/5) of an FPLC system (produced by Pharmacia), followed by column washing and human cathepsin L elution in the same manner as above. Experimental Example 8: Determination of human cathepsin L inhibitory activity […] After the reaction was stopped, the fluorescence intensity of free aminomethylcoumarin was determined at a wavelength of 450 nm (excitation wavelength=365 nm), using a fluorometer FCA (produced by Baxter). […]
Peptide text beside a SMILES is read from it. * marks the point of attachment. MeOSuc = COC(=O)CCC(=O)*
Endpoint: IC50 (nM)
Dear colleague, please return just the value in nM, with no unit written.

Solved entries:
O=C[C@H](Cc1c[nH]c2ccccc12)NC(=O)C(Cc1ccccc1)C(=O)NCc1ccccc1 (some centres unmarked) = 4.7
CC(C)C[C@H](NC(=O)c1ccccc1)C(=O)N[C@H](C=O)Cc1c[nH]c2ccccc12 = 1.7
CC[C@H](C)[C@H](NC(=O)CCC(=O)OC)C(=O)N[C@H](C(=O)N[C@H](C=O)Cc1c[nH]c2ccccc12)[C@@H](C)CC [Example 111] (MeOSuc-Ile-Ile-Trp-aldehyde) = 14

Request - read-out IC50 | tested on human cathepsin L (Homo sapiens, UniProt P07711) | compound CC[C@H](C)[C@H](NS(=O)(=O)c1cccc2ccccc12)C(=O)N[C@H](C=O)Cc1ccccc1 0.95

Request - read-out IC50 | tested on human cathepsin L (Homo sapiens, UniProt P07711) | compound CCOP(=O)(Cc1ccc(NC(=O)C(Cc2ccccc2)C(=O)N[C@H](C=O)Cc2c[nH]c3ccccc23)cc1)OCC (some centres unmarked) 37

====

target: human cathepsin L (Homo sapiens); construct: made in house; host or cells: mouse myeloma Sp2/0 cells stably transformed with pTBN-HCLneo (Sp-HCL26); purified from serum-free culture supernatant on CM-Sephadex C-50 and Mono S; experiment: Determination of human cathepsin L inhibitory activity (recombinant enzyme, Z-Phe-Arg-NMec substrate); type: biochemical; conditions: pH 5.5, 30° C., 10 minutes
Peptide text beside a SMILES is read from it. * marks the point of attachment. Cbz = O=C(OCc1ccccc1)*; Boc = CC(C)(C)OC(=O)*
IC50 values, listed per item
Dear colleague, please return just the value in nM, with no unit written.

Solved entries:
CC[C@H](C)[C@H](NC(=O)OCc1ccccc1)C(=O)N[C@H](C(=O)N[C@H](C=O)Cc1c[nH]c2ccccc12)[C@@H](C)CC [Example 108] (Cbz-Ile-Ile-Trp-aldehyde) = 5.4
CC[C@H](C)[C@H](NC(=O)OCCC12CC3CC(CC(C3)C1)C2)C(=O)N[C@H](C(=O)N[C@H](C=O)Cc1c[nH]c2ccccc12)[C@@H](C)CC = 380
CC(C)C[C@H](NS(=O)(=O)c1cccc2ccccc12)C(=O)N[C@@H](Cc1c[nH]c2ccccc12)C(=O)NCC=O = 19
O=C[C@H](Cc1c[nH]c2ccccc12)NC(=O)C(Cc1ccccc1)C(=O)N(Cc1ccccc1)Cc1ccccc1 (stereo partly shown) = 55
CC[C@@H](C=O)NC(=O)C(Cc1ccccc1)Cc1ccccc1 = 43
CC[C@H](C)[C@H](NC(=O)OC(C)(C)C)C(=O)N[C@H](C(=O)N[C@H](C=O)Cc1c[nH]c2ccccc12)[C@@H](C)CC [Example 109] (Boc-Ile-Ile-Trp-aldehyde) = 10
CC(C)[C@@H](C=O)NC(=O)C(Cc1ccccc1)Cc1ccccc1 = 26
O=C[C@H](Cc1c[nH]c2ccccc12)NC(=O)C(c1ccccc1)c1ccccc1 = 4.2
CC[C@H](C)[C@H](NC(=O)[C@@H](NS(=O)(=O)c1cccc2ccccc12)[C@@H](C)CC)C(=O)NC(C=O)Cc1cccc2ccccc12 (stereo partly shown) = 220
CC(C)[C@H](NC(=O)OCc1ccccc1)C(=O)N[C@H](C=O)Cc1c[nH]c2ccccc12 [Example 132] (Cbz-Val-Trp-aldehyde) = 0.99

Request - read-out IC50 | tested on human cathepsin L (Homo sapiens) | compound CC[C@H](C)[C@H](NC(=O)c1cc(=O)c2ccccc2o1)C(=O)N[C@H](C=O)Cc1c[nH]c2ccccc12 3.9

Request - read-out IC50 | tested on human cathepsin L (Homo sapiens) | compound CC[C@H](C)[C@H](NC(=O)OCc1ccccc1)C(=O)N[C@H](C=O)Cc1c[nH]c2ccccc12 11

Request - read-out IC50 | tested on human cathepsin L (Homo sapiens) | compound CC[C@H](C)[C@H](NC(=O)NCCC1CCCCC1)C(=O)N[C@H](C=O)Cc1c[nH]c2ccccc12 48

====

tested on: fetal rat forearm bones (radius and ulna), bone resorption; assay: Bone resorption suppressing action (^45 Ca release from cultured fetal rat forearm bones, method of Raisz); format: cell-based, Sprague-Dawley rat; details: 48 h, Concentration of Compound 10 μM, cultured two days, control = no test compound, mean of five bone fragments, read-out: Bone Resorption Inhibitory Activity [^45 Ca Release Rate (Percent to Control)]
Peptide text beside a SMILES is read from it. * marks the point of attachment. Cbz = O=C(OCc1ccccc1)*; Bz = O=C(c1ccccc1)*
activity at 10 µM values, listed per item
Dear colleague, please return just the value in %, with no unit written.

O=C[C@H](Cc1c[nH]c2ccccc12)NC(=O)[C@H](Cc1ccccc1)NC(=O)c1ccccc1 [Example 128] (Bz-Phe-Trp-aldehyde) = 73
CC[C@H](C)[C@H](NC(=O)OCc1ccccc1)C(=O)N[C@H](CO)Cc1cn(C(C)(C)C)c2ccccc12 = 67
CC(C)[C@H](NC(=O)OCc1ccccc1)C(=O)N[C@H](C=O)Cc1c[nH]c2ccccc12 [Example 132] (Cbz-Val-Trp-aldehyde) = 74

Request - read-out activity at 10 µM | tested on fetal rat forearm bones (radius and ulna), bone resorption | compound C[C@H](NS(=O)(=O)c1cccc2ccccc12)C(=O)N[C@H](C=O)Cc1c[nH]c2ccccc12 79

Request - read-out activity at 10 µM | tested on fetal rat forearm bones (radius and ulna), bone resorption | compound O=C[C@H](Cc1c[nH]c2ccccc12)NC(=O)C(Cc1ccccc1)Cc1ccccc1 73

Request - read-out activity at 10 µM | tested on fetal rat forearm bones (radius and ulna), bone resorption | compound CC(C)[C@H](NC(=O)c1ccccc1)C(=O)N[C@H](C=O)Cc1c[nH]c2ccccc12 [Example 134] (Bz-Val-Trp-aldehyde) 66

Request - read-out activity at 10 µM | tested on fetal rat forearm bones (radius and ulna), bone resorption | compound CCCC(CCC)C(=O)N[C@H](C(=O)N[C@H](C=O)Cc1c[nH]c2ccccc12)C(C)C 45

Request - read-out activity at 10 µM | tested on fetal rat forearm bones (radius and ulna), bone resorption | compound Cc1ccc(CC(Cc2ccccc2)C(=O)N[C@H](CO)Cc2c[nH]c3ccccc23)cc1 (some centres unmarked) 74

====

target: human cathepsin L (Homo sapiens); construct: made in house; host or cells: mouse myeloma Sp2/0 cells stably transformed with pTBN-HCLneo (Sp-HCL26); purified from serum-free culture supernatant on CM-Sephadex C-50 and Mono S; test: Determination of human cathepsin L inhibitory activity (recombinant enzyme, Z-Phe-Arg-NMec substrate); format: biochemical; settings: pH 5.5, 30° C., 10 minutes
Peptide text beside a SMILES is read from it. * marks the point of attachment. Bz = O=C(c1ccccc1)*
IC50 values, listed per item
Dear colleague, please return just the value in nM, with no unit written.

Solved entries:
CCCC(CCC)C(=O)N[C@@H](CC(C)C)C(=O)N[C@H](C=O)Cc1c[nH]c2ccccc12 = 2.4
CCCC(Sc1ccccc1)C(=O)N[C@H](C=O)Cc1c[nH]c2ccccc12 (stereo partly shown) = 85
CCCC(CCC)C(=O)N[C@H](C(=O)N[C@H](C=O)Cc1c[nH]c2ccccc12)C(C)C = 1
O=C[C@H](Cc1c[nH]c2ccccc12)NC(=O)[C@H](Cc1ccccc1)NC(=O)c1ccccc1 [Example 128] (Bz-Phe-Trp-aldehyde) = 19
CC[C@H](C)[C@H](NC(=O)OC(C)(C)C)C(=O)N[C@H](C=O)Cc1cn(C)c2ccccc12 = 6.1

Any idea what its IC50 is? The compound is CC[C@H](C)[C@H](NC(=O)[C@@H](NS(=O)(=O)c1cccc2ccccc12)[C@@H](C)CC)C(=O)N[C@H](C=O)Cc1c[nH]c2ccccc12 16

Any idea what its IC50 is? The compound is O=C[C@H](Cc1c[nH]c2ccccc12)NC(=O)C(Cc1ccccc1)Cc1ccccc1 32

====

Test system: fetal rat forearm bones (radius and ulna), bone resorption
Assay: Bone resorption suppressing action (^45 Ca release from cultured fetal rat forearm bones, method of Raisz)
Type: cell-based, Sprague-Dawley rat
Conditions: 48 h, Concentration of Compound 10 μM, cultured two days, control = no test compound, mean of five bone fragments, read-out: Bone Resorption Inhibitory Activity [^45 Ca Release Rate (Percent to Control)]
Excerpt: Specifically, one Sprague-Dawley rat, at 18 days of gestation, was given 50 μCi of ^45 Ca (calcium isotope, in CaCl2 solution) by subcutaneous injection. On the following day, the animal was laparotomized and fetal rats aseptically removed. Both forearm bones (radius and ulna) were cut out from the body of each fetus under an anatomical microscope, and connective tissue and cartilages were removed to the maximum possible extent, to prepare bone culture samples. […]
activity at 10 µM values, listed per item
Dear colleague, please return just the value in %, with no unit written.

Solved entries:
CC(C)[C@H](NC(=O)c1ccccc1)C(=O)N[C@H](CO)Cc1c[nH]c2ccccc12 = 76
CC[C@H](C)[C@H](NS(=O)(=O)c1cccc2ccccc12)C(=O)N[C@@H](C)C=O = 74
O=C(N[C@H](CO)Cc1c[nH]c2ccccc12)C(Cc1ccccc1)Cc1ccccc1 = 79
CCCC(CCC)C(=O)N[C@@H](CC(C)C)C(=O)N[C@H](C=O)Cc1c[nH]c2ccccc12 = 60
CC[C@H](C)[C@H](NS(=O)(=O)c1cccc2ccccc12)C(=O)N[C@H](C=O)Cc1ccc(O)cc1 = 65

// moving on: another record for activity at 10 µM
Any idea what its activity at 10 µM is? The compound is CC[C@H](C)[C@H](NC(=O)OCc1ccccc1)C(=O)N[C@H](C=O)Cc1ccc(OC(C)C)cc1 72
